IC50 for assorted molecules
# Method: Inhibition of interleukin-23 binding to rat interleukin-23 receptor incubated for 2 hrs by competitive binding ELISA
Report the value in nM with no unit label.

stdin: // lookup IC50 for `CC(=O)N[C@@H](CS)C(=O)N[C@@H](CCC(N)=O)C(=O)N[C@H](C(=O)N[C@@H](Cc1c[nH]c2ccccc12)C(=O)N[C@@H](CCC(N)=O)C(=O)N[C@@H](CS)C(=O)N[C@@H](Cc1ccc(O)cc1)C(=O)N[C@@H](Cc1cccc2ccccc12)C(=O)N[C@@H](CCC(C)C)C(=O)N[C@@H](CCC(=O)O)C(=O)N[C@@H](CC(N)=O)C(=O)NCC(N)=O)[C@@H](C)O`
stdout: 37

stdin: // lookup IC50 for `CC(=O)N[C@@H](CS)C(=O)N(C)[C@@H](CCCNC(=N)N)C(=O)N[C@H](C(=O)N[C@@H](Cc1c[nH]c2ccccc12)C(=O)N[C@@H](CCC(N)=O)C(=O)N[C@@H](CS)C(=O)N[C@@H](Cc1ccc(O)cc1)C(=O)N[C@@H](Cc1c[nH]c2ccccc12)C(=O)N[C@@H](CCCNC(=N)N)C(=O)N[C@H](C(=O)N[C@@H](Cc1ccccc1)C(=O)NCC(=O)NCCC(=O)N[C@H](CCCCN)C(N)=O)C(C)C)[C@@H](C)O`
stdout: 192

stdin: // lookup IC50 for `CC(=O)NCCCC[C@H](NC(=O)[C@H](CCC(C)C)NC(=O)[C@H](Cc1c[nH]c2ccccc12)NC(=O)[C@H](Cc1ccc(O)cc1)NC(=O)[C@H](CS)NC(=O)[C@H](CCC(N)=O)NC(=O)[C@H](Cc1c[nH]c2ccccc12)NC(=O)[C@@H](NC(=O)[C@H](CCC(N)=O)NC(=O)[C@H](CS)NC(C)=O)[C@@H](C)O)C(=O)N[C@@H](CC(N)=O)C(=O)NCC(N)=O`
stdout: 32

###

half-life at 20 µM for assorted compounds
# Method: Half life in simulated gastric fluid at 20 uM by LC-MS/MS analysis
# Type: ADME

Reference set (2 entries):
Structure smiles string	Observed
CC(=O)NCCOc1ccc(C[C@H](NC(=O)[C@@H]2CSCC[C@H](NC(C)=O)C(=O)N[C@@H](CCC(N)=O)C(=O)N[C@@H]([C@@H](C)O)C(=O)N[C@@H](Cc3c[nH]c4ccccc34)C(=O)N[C@@H](CCC(N)=O)C(=O)N2)C(=O)N[C@@H](Cc2ccc3ccccc3c2)C(=O)N[C@@](C)(CCCCN)C(=O)N[C@@H](CCC(=O)O)C(=O)N[C@@H](CC(N)=O)C(=O)NCC(N)=O)cc1	< 1 h
COc1ccc(C[C@H](NC(=O)[C@@H](NC(=O)[C@H](CCC(N)=O)NC(=O)[C@H](Cc2c[nH]c3ccccc23)NC(=O)[C@@H](NC(=O)[C@H](CCC(N)=O)NC(=O)[C@@H](NC(C)=O)C(C)(C)S)[C@@H](C)O)C(C)(C)S)C(=O)N[C@@H](Cc2ccc3ccccc3c2)C(=O)NC(C)(C)C(=O)N[C@@H](CCCCNC(C)=O)C(=O)N[C@@H](CC(N)=O)C(=O)N[C@@H](CC(N)=O)C(N)=O)cc1	> 6 h

stdin: // lookup half-life at 20 µM for `COc1ccc(C[C@H](NC(=O)[C@@H](NC(=O)[C@H](CCC(N)=O)NC(=O)[C@H](Cc2c[nH]c3ccccc23)NC(=O)[C@@H](NC(=O)[C@H](CCC(N)=O)NC(=O)[C@@H](NC(C)=O)C(C)(C)S)[C@@H](C)O)C(C)(C)S)C(=O)N[C@@H](Cc2ccc3ccccc3c2)C(=O)N[C@@](C)(CCCCN)C(=O)N[C@@H](CCCCNC(C)=O)C(=O)N[C@@H](CC(N)=O)C(=O)NCC(N)=O)cc1`
stdout: > 6 h

###

# Method: Half life in simulated gastric fluid at 20 uM by LC-MS/MS analysis
# Type: ADME
Property: half-life at 20 µM

Structure smiles string	half-life at 20 µM
CC(=O)N[C@H]1CCSC[C@@H](C(=O)N[C@@H](Cc2ccc(OCCN)cc2)C(=O)N[C@@H](Cc2ccc3ccccc3c2)C(=O)N[C@@](C)(CCCCN)C(=O)N[C@@H](CCC(=O)O)C(=O)N[C@@H](CC(N)=O)C(=O)NCC(N)=O)NC(=O)[C@H](CCC(N)=O)NC(=O)[C@H](Cc2c[nH]c3ccccc23)NC(=O)[C@H]([C@@H](C)O)NC(=O)[C@H](CCC(N)=O)NC1=O	> 6 h
CC(=O)NCCCC[C@H](NC(=O)[C@](C)(CC(C)C)NC(=O)[C@H](Cc1ccc2ccccc2c1)NC(=O)[C@H](Cc1ccc(C(N)=O)cc1)NC(=O)[C@@H](NC(=O)[C@H](CCC(N)=O)NC(=O)[C@H](Cc1c[nH]c2ccccc12)NC(=O)[C@@H](NC(=O)[C@H](CC(N)=O)NC(=O)[C@@H](NC(C)=O)C(C)(C)S)[C@@H](C)O)C(C)(C)S)C(=O)N[C@@H](CC(N)=O)C(=O)N[C@@H](CC(N)=O)C(N)=O	> 6 h

stdin: // lookup half-life at 20 µM for `CC(=O)N[C@H](C(=O)N[C@@H](CCC(N)=O)C(=O)N[C@H](C(=O)N[C@@H](Cc1c[nH]c2ccccc12)C(=O)N[C@@H](CCC(N)=O)C(=O)N[C@H](C(=O)N[C@@H](Cc1ccc(OCCN)cc1)C(=O)N[C@@H](Cc1ccc2ccccc2c1)C(=O)NC(C)(C)C(=O)N[C@@H](CCC(=O)O)C(=O)N[C@@H](CC(N)=O)C(=O)N[C@@H](CC(N)=O)C(N)=O)C(C)(C)S)[C@@H](C)O)C(C)(C)S`
stdout: > 6 h

###

# Test target: Interleukin-23 receptor (Homo sapiens, UniProt Q5VWK5)
# Sequence (Q5VWK5 whole entry): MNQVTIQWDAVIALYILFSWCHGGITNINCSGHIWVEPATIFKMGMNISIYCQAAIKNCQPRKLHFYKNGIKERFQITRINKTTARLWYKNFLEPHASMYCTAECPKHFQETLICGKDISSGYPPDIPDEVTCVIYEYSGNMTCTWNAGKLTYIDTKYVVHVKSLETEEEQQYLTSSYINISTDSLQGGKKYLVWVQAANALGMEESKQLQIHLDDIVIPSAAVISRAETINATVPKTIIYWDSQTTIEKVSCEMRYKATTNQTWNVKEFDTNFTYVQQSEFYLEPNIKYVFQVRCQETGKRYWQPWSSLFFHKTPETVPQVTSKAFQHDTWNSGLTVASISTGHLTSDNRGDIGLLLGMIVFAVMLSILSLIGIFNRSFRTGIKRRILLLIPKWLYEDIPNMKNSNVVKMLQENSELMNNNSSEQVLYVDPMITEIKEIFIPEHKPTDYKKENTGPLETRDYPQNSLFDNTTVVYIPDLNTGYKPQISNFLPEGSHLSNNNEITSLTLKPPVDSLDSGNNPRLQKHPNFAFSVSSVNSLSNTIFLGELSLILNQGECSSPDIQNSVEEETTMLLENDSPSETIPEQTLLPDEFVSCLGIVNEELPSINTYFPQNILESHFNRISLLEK
# Method: Inhibition of interleukin-23 receptor in human DB cells assessed as reduction in IL-23-stimulated STAT3 phosphorylation incubated for 30 mins by HTRF assay
# Type: cell-based
Property: IC50 (nM)
Report the value in nM with no unit label.

stdin: // lookup IC50 for `CC(=O)NCCCC[C@H](NC(=O)[C@H](CCC(C)C)NC(=O)[C@H](Cc1c[nH]c2ccccc12)NC(=O)[C@H](Cc1ccc(O)cc1)NC(=O)[C@H](CS)NC(=O)[C@H](CCC(N)=O)NC(=O)[C@H](Cc1c[nH]c2ccccc12)NC(=O)[C@@H](NC(=O)[C@H](CCC(N)=O)NC(=O)[C@H](CS)NC(C)=O)[C@@H](C)O)C(=O)N[C@@H](CC(N)=O)C(=O)NCC(N)=O`
stdout: 3

###

# Method: Half life in simulated gastric fluid at 20 uM by LC-MS/MS analysis
# Format: ADME
*1 amine or outer side, *2 acyl side, *3 side chain or, on linkers, in order; H or OH if unused. Where a SMILES comes first, the peptide text is derived from it. Bridges are numbered along the chain shown (N, C = ends). [ ]: non-standard residue; d: D form. Abu(4-yl) = O=C([C@H](CC[*:3])N[*:1])[*:2]; 2Nal = N[C@@H](Cc1ccc2ccccc2c1)C(=O)O; AEF = NCCOc1ccc(C[C@H](N)C(=O)O)cc1; αMeK = C[C@](N)(CCCCN)C(=O)O
Property: half-life at 20 µM

stdin: // lookup half-life at 20 µM for CC(=O)N[C@@H](CC(C)C)C(=O)N[C@H]1CCSC[C@@H](C(=O)N[C@@H](Cc2ccc(OCCN)cc2)C(=O)N[C@@H](Cc2ccc3ccccc3c2)C(=O)N[C@@](C)(CCCCN)C(=O)N[C@@H](CCC(=O)O)C(=O)N[C@@H](CC(N)=O)C(=O)N[C@@H](CC(N)=O)C(N)=O)NC(=O)[C@H](CCC(N)=O)NC(=O)[C@H](Cc2c[nH]c3ccccc23)NC(=O)[C@H]([C@@H](C)O)NC(=O)[C@H](CCC(N)=O)NC1=O (Ac-L[Abu(4-yl)]QTWQC[AEF][2Nal][αMeK]ENN-NH2; thioether 2-7)
stdout: 2 to 3 h
